subject-of-test: Tissue alpha-L-fucosidase (Homo sapiens, UniProt P04066)
Sequence (P04066 whole entry): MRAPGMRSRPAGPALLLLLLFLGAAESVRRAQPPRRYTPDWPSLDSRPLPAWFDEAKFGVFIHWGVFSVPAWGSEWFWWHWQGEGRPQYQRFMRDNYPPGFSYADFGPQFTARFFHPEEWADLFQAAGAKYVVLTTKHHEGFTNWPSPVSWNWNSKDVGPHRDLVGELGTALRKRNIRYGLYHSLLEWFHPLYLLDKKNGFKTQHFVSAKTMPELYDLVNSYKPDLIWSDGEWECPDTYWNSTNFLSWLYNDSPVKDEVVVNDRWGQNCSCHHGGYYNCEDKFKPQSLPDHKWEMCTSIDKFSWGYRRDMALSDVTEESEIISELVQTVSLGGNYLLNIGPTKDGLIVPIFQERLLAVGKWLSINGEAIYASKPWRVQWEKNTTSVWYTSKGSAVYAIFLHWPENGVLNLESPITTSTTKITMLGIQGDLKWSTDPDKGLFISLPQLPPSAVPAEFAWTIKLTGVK
test: Inhibition constant against Alpha-Fucosidase
The entries below come with measured Ki values attached.
observable: Ki

>  <molecule>
CC(=O)C1C(O)C=COC1c1ccccc1 (stereo not drawn)

>  <observable>
Ki

>  <measured>
> 100 mM

$$$$
>  <molecule>
C[C@@H]1N[C@@H](CO)[C@H](O)[C@@H]1O

>  <observable>
Ki

>  <measured>
0.004 mM

$$$$
>  <molecule>
CN1CC(O)C(O)C(O)C1CO (stereo not drawn)

>  <observable>
Ki

>  <measured>
5.3 mM

$$$$

---

The entries below come with measured Ki values attached.
subject-of-test: UniProt P04066
test: Inhibition constant against Alpha-Fucosidase; Uncompetitive inhibition
observable: Ki

>  <compound>
OC1C=COC(c2ccccc2)C1O (stereo in doubt; 25)

>  <observable>
Ki

>  <measured>
22 mM

$$$$
>  <compound>
CC(=O)C1C(O)C=COC1C (stereo not given)

>  <observable>
Ki

>  <measured>
26 mM

$$$$
>  <compound>
OC1C=COC(c2ccccc2)C1O (stereo in doubt; 23)

>  <observable>
Ki

>  <measured>
83 mM

$$$$
>  <compound>
C[C@H]1OC=C[C@@H](O)[C@H]1O (stereo in doubt; 19)

>  <observable>
Ki

>  <measured>
35 mM

$$$$
>  <compound>
C[C@H]1OC=C[C@@H](O)[C@H]1O (stereo in doubt; 24)

>  <observable>
Ki

>  <measured>
23 mM

$$$$

Reference for the values: ChEMBL document CHEMBL1126329
